- SUBJECT OF TEST: Nitric oxide synthase, inducible (Homo sapiens)
- Sequence (P35228 whole entry): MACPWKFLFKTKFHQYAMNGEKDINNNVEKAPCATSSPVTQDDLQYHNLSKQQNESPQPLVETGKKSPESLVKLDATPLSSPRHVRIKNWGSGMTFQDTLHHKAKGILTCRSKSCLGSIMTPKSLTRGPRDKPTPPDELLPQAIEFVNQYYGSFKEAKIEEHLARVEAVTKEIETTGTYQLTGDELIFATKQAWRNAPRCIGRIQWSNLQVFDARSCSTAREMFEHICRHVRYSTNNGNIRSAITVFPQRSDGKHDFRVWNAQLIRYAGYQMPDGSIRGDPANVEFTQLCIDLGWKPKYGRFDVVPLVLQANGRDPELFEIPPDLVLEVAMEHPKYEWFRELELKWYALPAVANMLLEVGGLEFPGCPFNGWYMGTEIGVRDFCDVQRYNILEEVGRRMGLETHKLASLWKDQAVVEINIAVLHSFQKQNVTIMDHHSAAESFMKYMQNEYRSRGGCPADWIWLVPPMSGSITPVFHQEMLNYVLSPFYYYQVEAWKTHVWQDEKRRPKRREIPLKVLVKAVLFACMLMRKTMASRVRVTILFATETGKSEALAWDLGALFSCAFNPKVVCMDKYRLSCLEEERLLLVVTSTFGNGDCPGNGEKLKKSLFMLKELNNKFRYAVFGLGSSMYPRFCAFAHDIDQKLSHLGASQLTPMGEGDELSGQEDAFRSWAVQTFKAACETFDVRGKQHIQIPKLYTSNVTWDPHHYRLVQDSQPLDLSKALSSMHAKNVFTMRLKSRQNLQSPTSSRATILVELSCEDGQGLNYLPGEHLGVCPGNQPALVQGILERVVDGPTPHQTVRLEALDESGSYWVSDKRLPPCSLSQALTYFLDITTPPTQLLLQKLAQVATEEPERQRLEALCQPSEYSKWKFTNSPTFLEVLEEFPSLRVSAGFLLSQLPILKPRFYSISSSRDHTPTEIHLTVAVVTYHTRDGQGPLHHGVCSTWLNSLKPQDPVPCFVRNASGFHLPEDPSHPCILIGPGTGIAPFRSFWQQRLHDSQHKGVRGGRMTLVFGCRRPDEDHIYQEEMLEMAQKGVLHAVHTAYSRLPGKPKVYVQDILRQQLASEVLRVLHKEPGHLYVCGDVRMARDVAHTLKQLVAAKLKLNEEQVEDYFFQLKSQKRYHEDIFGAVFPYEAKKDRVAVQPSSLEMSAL
- METHOD DESCRIPTION: Inhibition of human recombinant iNOS
RECORDED ENDPOINT: IC50 (nM)

I: CNCC[C@@H](Oc1cc(C(F)(F)F)ccc1C#N)c1ccccc1.Cl
II: NCC(Oc1cc(Cl)ccc1Cl)c1ccccc1 (stereo not drawn)
III: N#Cc1ccc(Cl)cc1S[C@H](CCN)c1ccccc1.O=C(O)/C=C/C(=O)O
// rank the listed compounds by IC50, lowest value first Provide the labels, sequenced as the question asks.
III, I, II
(III: 4 nM, I: 71 nM, II: 1900 nM)

* * *

- SUBJECT OF TEST: Nitric oxide synthase, inducible (Homo sapiens)
- METHOD DESCRIPTION: Inhibition of human recombinant iNOS
pIC50: −log10 of the molar value.
RECORDED ENDPOINT: pIC50

COMPOUND: CCC(CCNC)Oc1cc(Cl)ccc1C#N.Cl (racemic)
REPORTED VALUE: 7.29
//
COMPOUND: CNCC[C@@H](Oc1cc(Cl)ccc1Cl)c1ccccc1.O=C(O)/C=C/C(=O)O
REPORTED VALUE: 7.66
//
COMPOUND: CNCC[C@@H](Oc1cc(Cl)ccc1C#N)c1ccccc1.Cl
REPORTED VALUE: 8.05
//
COMPOUND: N#Cc1ccc(C(F)(F)F)nc1O[C@H](CCN)c1ccno1.O=C(O)C(=O)O
REPORTED VALUE: 8.27
//
COMPOUND: N#Cc1cc(Cl)ccc1O[C@H](CCN)c1ccccc1.O=C(O)/C=C/C(=O)O
REPORTED VALUE: 6.02
//
COMPOUND: CNCC[C@@H](Oc1cc(OC)ccc1C#N)c1ccccc1.O=C(O)C(=O)O
REPORTED VALUE: 6.96

P: Cc1ccnc(NCc2ccccc2)c1
Q: N#Cc1cc(F)c(Cl)cc1O[C@H](CCN)c1ccccc1.O=C(O)C(=O)O
Hi team, can someone confirm which has the larger pIC50: P or Q ? Thanks. # respond with the chosen item's label
Q
(Q: 8.22, P: 6.10)

* * *

- SUBJECT OF TEST: Voltage-gated inwardly rectifying potassium channel KCNH2 (Homo sapiens, UniProt Q12809)
- Sequence (Q12809 whole entry): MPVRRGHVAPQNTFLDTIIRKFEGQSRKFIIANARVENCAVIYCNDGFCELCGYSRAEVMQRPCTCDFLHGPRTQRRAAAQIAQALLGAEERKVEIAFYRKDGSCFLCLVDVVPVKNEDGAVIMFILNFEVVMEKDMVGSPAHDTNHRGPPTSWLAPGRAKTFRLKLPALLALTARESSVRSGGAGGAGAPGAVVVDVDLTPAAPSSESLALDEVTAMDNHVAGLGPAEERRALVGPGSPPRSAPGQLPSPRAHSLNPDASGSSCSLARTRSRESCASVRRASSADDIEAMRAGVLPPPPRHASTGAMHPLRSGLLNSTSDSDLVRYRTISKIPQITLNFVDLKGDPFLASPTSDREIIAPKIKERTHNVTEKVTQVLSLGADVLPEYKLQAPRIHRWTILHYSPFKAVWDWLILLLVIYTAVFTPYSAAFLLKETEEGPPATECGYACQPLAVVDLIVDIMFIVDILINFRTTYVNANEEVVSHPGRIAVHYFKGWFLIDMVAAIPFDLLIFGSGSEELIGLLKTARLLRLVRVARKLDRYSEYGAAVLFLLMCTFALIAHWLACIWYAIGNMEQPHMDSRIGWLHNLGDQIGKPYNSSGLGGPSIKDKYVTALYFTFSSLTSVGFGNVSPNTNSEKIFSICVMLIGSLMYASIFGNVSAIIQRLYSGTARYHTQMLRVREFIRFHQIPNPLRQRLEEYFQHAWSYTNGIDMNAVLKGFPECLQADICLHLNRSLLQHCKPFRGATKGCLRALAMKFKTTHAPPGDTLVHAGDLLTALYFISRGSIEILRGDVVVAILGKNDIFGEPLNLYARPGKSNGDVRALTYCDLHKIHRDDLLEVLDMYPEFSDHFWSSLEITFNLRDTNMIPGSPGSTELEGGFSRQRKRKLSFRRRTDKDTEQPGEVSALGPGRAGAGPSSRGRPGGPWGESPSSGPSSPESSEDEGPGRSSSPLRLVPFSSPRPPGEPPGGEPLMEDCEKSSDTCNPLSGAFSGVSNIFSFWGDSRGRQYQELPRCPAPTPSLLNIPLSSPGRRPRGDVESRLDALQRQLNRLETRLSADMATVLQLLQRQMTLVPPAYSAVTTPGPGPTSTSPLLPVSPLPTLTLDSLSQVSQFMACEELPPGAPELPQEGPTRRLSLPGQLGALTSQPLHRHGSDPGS
- METHOD DESCRIPTION: Inhibition of human ERG
- CONDITION PARAMETERS: read-out: IC50
pIC50: −log10 of the molar value.
RECORDED ENDPOINT: pIC50

Please provide the recorded pIC50 for N#Cc1ccc(C(F)(F)F)nc1O[C@H](CCN)c1ccno1.O=C(O)C(=O)O , tested on Voltage-gated inwardly rectifying potassium channel KCNH2 (Homo sapiens, UniProt Q12809).
< 5.00

Please provide the recorded pIC50 for N#Cc1cc(F)c(Cl)cc1O[C@H](CCN)c1ccccc1.O=C(O)C(=O)O , tested on Voltage-gated inwardly rectifying potassium channel KCNH2 (Homo sapiens, UniProt Q12809).
< 5.00

Please provide the recorded pIC50 for N#Cc1ccc(C(=O)N2CCC3(CC2)N=C(N)c2c(F)ccc(F)c2N3)cn1 , tested on Voltage-gated inwardly rectifying potassium channel KCNH2 (Homo sapiens, UniProt Q12809).
7.00

* * *

- SUBJECT OF TEST: Sodium-dependent noradrenaline transporter (Homo sapiens)
- Sequence (P23975 whole entry): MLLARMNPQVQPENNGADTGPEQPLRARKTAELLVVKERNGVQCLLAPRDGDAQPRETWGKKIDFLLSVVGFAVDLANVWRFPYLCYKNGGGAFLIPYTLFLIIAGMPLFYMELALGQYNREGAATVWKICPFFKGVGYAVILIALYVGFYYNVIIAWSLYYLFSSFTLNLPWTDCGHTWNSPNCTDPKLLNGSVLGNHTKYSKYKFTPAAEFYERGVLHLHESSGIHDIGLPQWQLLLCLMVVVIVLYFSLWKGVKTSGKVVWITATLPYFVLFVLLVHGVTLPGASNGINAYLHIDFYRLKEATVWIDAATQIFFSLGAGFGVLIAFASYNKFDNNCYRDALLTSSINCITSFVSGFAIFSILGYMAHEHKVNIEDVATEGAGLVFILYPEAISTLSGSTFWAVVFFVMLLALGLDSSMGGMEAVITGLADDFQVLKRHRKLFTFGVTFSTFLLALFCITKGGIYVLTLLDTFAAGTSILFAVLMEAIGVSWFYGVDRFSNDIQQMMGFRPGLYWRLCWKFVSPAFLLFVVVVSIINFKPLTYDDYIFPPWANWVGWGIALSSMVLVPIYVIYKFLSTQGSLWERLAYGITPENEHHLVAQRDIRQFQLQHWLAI
- METHOD DESCRIPTION: Inhibition of NET
- CONDITION PARAMETERS: read-out: IC50
RECORDED ENDPOINT: IC50 (µM)

COMPOUND: N#Cc1ccc(Cl)cc1O[C@H](CCN)c1ccccc1.O=C(O)C(=O)O
UNIT STRING: µM
REPORTED VALUE: 15

1: CNCC[C@@H](Oc1cc(OC)ccc1C#N)c1ccccc1.O=C(O)C(=O)O
2: CCC(CCNC)Oc1cc(Cl)ccc1C#N.Cl (racemic)
Pick one, 1 or 2 : lowest reported IC50. # respond with the chosen item's label
2

A: CNCC[C@@H](Oc1cc(C(F)(F)F)ccc1C#N)c1ccccc1.Cl
B: N#Cc1cc(F)c(Cl)cc1O[C@H](CCN)c1ccccc1.O=C(O)C(=O)O
C: Cc1ccc(C#N)c(S[C@H](CCN)c2ccccc2)n1.O=C(O)/C=C/C(=O)O
D: CNCC[C@@H](Oc1cc(Cl)ccc1C#N)c1ccccc1.Cl
Ascending by IC50, please. Provide the labels, sequenced as the question asks.
D, C, B, A

* * *

- METHOD DESCRIPTION: Lipophilicity, log D of the compound
- Type: physicochemical
- CONDITION PARAMETERS: octanol/water
RECORDED ENDPOINT: logD

Example compounds with recorded logD:
COMPOUND: CNCC[C@@H](Oc1cc(OC)ccc1C#N)c1ccccc1.O=C(O)C(=O)O
RECORDED ENDPOINT: logD
REPORTED VALUE: 0.9
--
COMPOUND: N#Cc1cc(F)c(Cl)cc1O[C@H](CCN)c1ccccc1.O=C(O)C(=O)O
RECORDED ENDPOINT: logD
REPORTED VALUE: 0.8
--
COMPOUND: N#Cc1ccc(Cl)cc1O[C@H](CCN)c1ccccc1.O=C(O)C(=O)O
RECORDED ENDPOINT: logD
REPORTED VALUE: 0.8
--
COMPOUND: CNCC[C@@H](Oc1cc(Cl)ccc1C#N)c1ccccc1.Cl
RECORDED ENDPOINT: logD
REPORTED VALUE: 1.7
--
COMPOUND: N#Cc1cc(Cl)ccc1O[C@H](CCN)c1ccccc1.O=C(O)/C=C/C(=O)O
RECORDED ENDPOINT: logD
REPORTED VALUE: 0.9

1: Cc1ccc(C#N)c(S[C@H](CCN)c2ccccc2)n1.O=C(O)/C=C/C(=O)O
2: CCC(CCNC)Oc1cc(Cl)ccc1C#N.Cl (racemic)
3: CNCC[C@@H](Oc1cc(C(F)(F)F)ccc1C#N)c1ccccc1.Cl
4: N#Cc1ccc(C(F)(F)F)nc1O[C@H](CCN)c1ccno1.O=C(O)C(=O)O
Order the items by recorded logD; the first position goes to the largest value. Provide the labels, sequenced as the question asks.
3, 1, 2, 4

* * *

- METHOD DESCRIPTION: Volume of distribution at steady state in iv dosed rat
- Assay type: ADME, organism-based
- CONDITION PARAMETERS: in vivo, read-out: Vdss
RECORDED ENDPOINT: Vd (L/kg)

Example compounds with recorded Vd:
STRUCTURE SMILES STRING: CNCC[C@@H](Oc1cc(Cl)ccc1C#N)c1ccccc1.Cl
UNIT STRING: L/kg
Vd: 6.6
//
STRUCTURE SMILES STRING: N#Cc1ccc(C(F)(F)F)nc1O[C@H](CCN)c1ccno1.O=C(O)C(=O)O
UNIT STRING: L/kg
Vd: 3.4

1: N#Cc1ccc(C(=O)N2CCC3(CC2)N=C(N)c2c(F)ccc(F)c2N3)cn1
2: N#Cc1cc(F)c(Cl)cc1O[C@H](CCN)c1ccccc1.O=C(O)C(=O)O
Pick one, 1 or 2 : lowest reported Vd. # respond with the chosen item's label
1

* * *

- SUBJECT OF TEST: Cytochrome P450 2D6 (Homo sapiens, UniProt P10635)
- Sequence (P10635 whole entry): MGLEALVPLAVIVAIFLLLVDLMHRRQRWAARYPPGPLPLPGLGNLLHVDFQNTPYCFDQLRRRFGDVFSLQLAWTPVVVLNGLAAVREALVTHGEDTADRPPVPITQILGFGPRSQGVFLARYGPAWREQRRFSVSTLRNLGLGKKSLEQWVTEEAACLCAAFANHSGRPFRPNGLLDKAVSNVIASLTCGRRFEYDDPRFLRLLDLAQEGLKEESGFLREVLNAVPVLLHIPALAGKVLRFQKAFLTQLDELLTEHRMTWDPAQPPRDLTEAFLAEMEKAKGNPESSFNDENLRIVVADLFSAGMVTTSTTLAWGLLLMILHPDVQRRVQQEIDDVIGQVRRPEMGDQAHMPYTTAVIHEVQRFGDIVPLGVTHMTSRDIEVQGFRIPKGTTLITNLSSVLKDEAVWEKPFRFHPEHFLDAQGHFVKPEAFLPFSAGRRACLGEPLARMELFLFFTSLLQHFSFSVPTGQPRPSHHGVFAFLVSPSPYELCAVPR
- METHOD DESCRIPTION: Inhibition of CYP2D6
- Type: ADME
RECORDED ENDPOINT: IC50

MOLECULE: CNCC[C@@H](Oc1cc(Cl)ccc1Cl)c1ccccc1.O=C(O)/C=C/C(=O)O
RECORDED ENDPOINT: IC50
REPORTED VALUE: Not Active

MOLECULE: N#Cc1cc(Cl)ccc1O[C@H](CCN)c1ccccc1.O=C(O)/C=C/C(=O)O
RECORDED ENDPOINT: IC50
REPORTED VALUE: Not Active

MOLECULE: N#Cc1ccc(C(=O)N2CCC3(CC2)N=C(N)c2c(F)ccc(F)c2N3)cn1
RECORDED ENDPOINT: IC50
REPORTED VALUE: Not Active

MOLECULE: NCC(Oc1cc(Cl)ccc1Cl)c1ccccc1 (centres undefined)
RECORDED ENDPOINT: IC50
REPORTED VALUE: Not Active

* * *

Listing of recorded Ratio IC50 by entry.
- Organism: Homo sapiens
- METHOD DESCRIPTION: Selectivity ratio of IC50 for human recombinant iNOS to IC50 for human recombinant eNOS

Value lookup for Ratio IC50; key = Cc1ccc(C#N)c(S[C@H](CCN)c2ccccc2)n1.O=C(O)/C=C/C(=O)O
> 10000

Value lookup for Ratio IC50; key = N#Cc1cc(F)c(Cl)cc1O[C@H](CCN)c1ccccc1.O=C(O)C(=O)O
> 10000

* * *

- Organism: Homo sapiens
- METHOD DESCRIPTION: Selectivity ratio of IC50 for human recombinant iNOS to IC50 for human recombinant eNOS
RECORDED ENDPOINT: Ratio IC50

Example compounds with recorded Ratio IC50:
COMPOUND: NCC(Oc1cc(Cl)ccc1Cl)c1ccccc1 (stereo not drawn)
RECORDED ENDPOINT: Ratio IC50
REPORTED VALUE: > 53
--
COMPOUND: CNCC[C@@H](Oc1cc(Cl)ccc1Cl)c1ccccc1.O=C(O)/C=C/C(=O)O
RECORDED ENDPOINT: Ratio IC50
REPORTED VALUE: > 4500

Field: next compound
Value lookup for Ratio IC50; key = N#Cc1ccc(Cl)cc1O[C@H](CCN)c1ccccc1.O=C(O)C(=O)O
> 10000
